Reported values of GI50 for individual entries
Test system: HCT-15 colon
Experiment: NCI tumour cell line growth inhibition, 48 h

Example cases with answers are listed next.
INSERT INTO assay_data (compound, parameter_measured, readout_value) VALUES
  ('Cc1c(Cn2c(C)nc3c(C(=O)O)cc(N4CCOCC4)cc32)cccc1C(F)(F)F', 'GI50', '4.58 µM'),
  ('COc1ccc2c(c1)CCC1C2CC[C@@]2(C)C1CC[C@@H]2NC(=O)Cc1ccc(O)c(O)c1 (stereo not given in full)', 'GI50', '3.74 µM'),
  ('COc1ccc(-c2ncnc3c2ncn3CC#CCCl)cc1', 'GI50', '4.07 µM');

The reported GI50 of the compound O=C1c2c(c(=O)[nH]c3ccccc23)[C@H](c2ccccc2)[C@@H]2CCCN12 was 3.37 µM

The reported GI50 of the compound CC1(C)N=C(N)N=C(N)N1c1ccc(CNC(=O)Nc2ccc(S(=O)(=O)F)c(Cl)c2)c(Cl)c1 was 4.87 µM

----------
Test system: MCF7 breast
Assay: NCI tumour cell line growth inhibition, 48 h
Parameter measured: TGI

Example cases with answers are listed next.
INSERT INTO assay_data (molecule, target_entity, readout_value) VALUES
  ('CC1(C)Oc2ccc3ccc(=O)oc3c2C(O)C1O (configuration not stated)', 'MCF7 breast', '> 100 µM'),
  ('[N-]=[N+]=NCN1C(=O)C2C3C=CC(C2C1=O)C1C2C(=O)N(CN=[N+]=[N-])C(=O)C2C31 (configuration not stated)', 'MCF7 breast', '> 100 µM'),
  ('O=[N+]([O-])c1ccc(-c2csc(N=Nc3c(O)[nH]c4ccccc34)n2)cc1', 'MCF7 breast', '> 100 µM'),
  ('COC(=O)c1cc2c(c(C(=O)OC)c1)CCC2', 'MCF7 breast', '> 100 µM'),
  ('Cc1cc2c(F)c(Oc3ncnc(Nc4ccc(N5C[C@@H](C)N[C@@H](C)C5)cc4)c3C#N)cc(F)c2[nH]1', 'MCF7 breast', '4.29 µM');

The reported TGI of the molecule COc1ccc2[nH]cc(CCNC(=O)[C@H](Cc3ccc(O)cc3)NC(=O)[C@@H](NCC(F)(F)F)C(C)C)c2c1 was > 100 µM

The reported TGI of the molecule CC1OC(OC2C(O)COC(OC3C(C)OC(OC4C(OC(=O)[C@]56CCC(C)(C)C[C@@H]5C5=CCC7[C@@]8(C)C[C@H](O)[C@H](OC9OC(CO)C(O)C(O)C9O)[C@@](C)(CO)[C@@H]8CC[C@@]7(C)[C@]5(C)CC6)OCC(O)C4O)C(O)C3O)C2O)C(O)C(O)C1O (some centres not stated) was > 100 µM

The reported TGI of the molecule COc1nc(N)nc2c1ncn2C1CC(O)C(CO)O1 (configuration not stated) was > 100 µM

The reported TGI of the molecule NC(=S)N/N=C/c1ccc(OC(=O)COc2cc(Cl)c(Cl)cc2Cl)cn1 was > 100 µM

The reported TGI of the molecule FC1(F)ON2CCc3ccccc3C2[C@H]1c1ccccc1 (some centres not stated) was > 100 µM

The reported TGI of the molecule COc1ccc(CCN2CCN(CCCc3ccccc3)CC2)cc1 was > 100 µM

The reported TGI of the molecule COC(=O)[C@H](Cc1ccccc1)NC(=O)c1ccc(CNC(=O)/C=C/c2ccc(OCc3ccccc3)cc2)cc1 was > 100 µM

The reported TGI of the molecule O=C1c2c(c(=O)[nH]c3ccccc23)[C@H](c2ccccc2)[C@@H]2CCCN12 was 9.38 µM

The reported TGI of the molecule NCCCCC(NC(=O)C(N)CCCN=C(N)N)C(=O)NC(CCCCN)C(=O)NC(CCCN=C(N)N)C(=O)NC(CCCN=C(N)N)C(=O)NC(CCC(N)=O)C(=O)NC(CCCN=C(N)N)C(=O)NC(CCCN=C(N)N)C(=O)NC(CCCN=C(N)N)C(=O)NCC(=O)NCC(=O)O (configuration not stated) was > 50 µM

The reported TGI of the molecule Cn1c(-c2ccc(C=O)o2)ccc1-c1ccc(C=O)o1 was > 100 µM

The reported TGI of the molecule CN(C)c1ccc(/C=N/NC(N)=S)nc1 was > 100 µM

The reported TGI of the molecule O=C1C(Cl)=C(Cl)C(=O)C(CCNc2nccs2)=C1Cl was > 100 µM

----------
System: RXF 393 renal
Experiment: NCI tumour cell line growth inhibition, 48 h
Parameter measured: TGI

INSERT INTO assay_data (compound, target_entity, parameter_measured, readout_value) VALUES
  ('CCSC[C@@H]1C[C@](O)(c2ccc(Cl)cc2)[C@@H](c2ccc(Cl)cc2)O1', 'RXF 393 renal', 'TGI', '38.5 µM'),
  ('Nc1nc(=O)n(C2CCC(CO)O2)cc1F (stereo unspecified)', 'RXF 393 renal', 'TGI', '> 100 µM'),
  ('CSc1ccc(C2=NN(C(C)=O)C(c3ccc(-c4cc(Cl)c(Cl)cc4Cl)o3)C2)cc1 (stereo unspecified)', 'RXF 393 renal', 'TGI', '35.1 µM'),
  ('C[C@H](Nc1nc(N)c(N=O)c(=O)n1C)C(=O)O', 'RXF 393 renal', 'TGI', '> 10 µM'),
  ('NC(=S)N1N=C2CCCCCC[C@@H]2[C@H]1c1ccccc1', 'RXF 393 renal', 'TGI', '> 100 µM'),
  ('Cc1nc(OCc2ccccc2)c2ncn(CCO)c2n1', 'RXF 393 renal', 'TGI', '> 100 µM'),
  ('Nc1nc(Cl)cc(NCC2(CCO)CCC2)n1', 'RXF 393 renal', 'TGI', '> 100 µM'),
  ('Cn1c(-c2ccc(C=O)o2)ccc1-c1ccc(C=O)o1', 'RXF 393 renal', 'TGI', '> 100 µM'),
  ('c1ccc(SC(Sc2ccccc2)=C2CCC2)cc1', 'RXF 393 renal', 'TGI', '> 100 µM'),
  ('O=C(Nc1ccccc1)N(CCN(Cc1ccccc1)C(=O)Nc1ccccc1)CCN(Nc1ccccc1)C(=O)Nc1ccccc1', 'RXF 393 renal', 'TGI', '> 100 µM');

The reported TGI of the compound CCn1c(SCC(=O)N/N=C2\SCC(=O)N2c2ccc(C)cc2)nc2ccccc2c1=O was 53.8 µM

The reported TGI of the compound CCCCN(CC)C(=O)C(=O)Cc1nc2ccc(C(=O)c3ccccc3)cc2[nH]c1=O was 92 µM

The reported TGI of the compound O=S(=O)(O)c1ccc(N=Nc2ccccc2)cc1 was > 100 µM

The reported TGI of the compound O=C(c1c(F)c(F)c(F)c(F)c1F)c1c(F)c(F)c(F)c(F)c1F was 2.94 µM

The reported TGI of the compound CC1OC(OC2C(O)COC(OC3C(C)OC(OC4C(OC(=O)[C@]56CCC(C)(C)C[C@@H]5C5=CCC7[C@@]8(C)C[C@H](O)[C@H](OC9OC(CO)C(O)C(O)C9O)[C@@](C)(CO)[C@@H]8CC[C@@]7(C)[C@]5(C)CC6)OCC(O)C4O)C(O)C3O)C2O)C(O)C(O)C1O (stereo partly specified) was 33.5 µM

The reported TGI of the compound Cc1ncn(-c2ccccc2O)c1C was > 100 µM

The reported TGI of the compound CO/C=C(/C(=O)OC)[C@@H]1C[C@@H]1c1ccc2ccccc2c1 was > 100 µM

The reported TGI of the compound COc1ccc(/C=C2\N=C(N3CCCC(CO)C3)NC2=O)cc1 (stereo unspecified) was > 100 µM

The reported TGI of the compound CCCCCCN(CCCCCC)CCC(=O)c1ccc2cc(Br)c3ccccc3c2c1 was 64.3 µM

The reported TGI of the compound COC(=O)CCC(=O)Nc1ccc(Cl)cc1C was > 100 µM

The reported TGI of the compound COc1cnc2c(c1)C(=O)c1c-2n(CCCN2CCCC2)c(=O)c2cc([N+](=O)[O-])ccc12 was 0.533 µM

----------
System: UACC-62 melanoma
Assay: NCI tumour cell line growth inhibition, 48 h
Parameter measured: TGI

INSERT INTO assay_data (compound, parameter_measured, readout_value) VALUES
  ('COC(=O)C(CNC(=O)/C=C/c1ccc(OC)c(OC)c1)NC(=O)/C=C/c1ccc(OC)c(OC)c1 (centres undefined)', 'TGI', '> 100 µM'),
  ('COc1ccc2[nH]cc(CCNC(=O)[C@H](Cc3ccc(O)cc3)NC(=O)[C@@H](NCC(F)(F)F)C(C)C)c2c1', 'TGI', '> 100 µM'),
  ('CC(C)(C)C(=O)N1C(C(=O)O)Cc2ccccc2[C@@H]1Cc1ccccc1 (some centres undefined)', 'TGI', '> 100 µM'),
  ('CC1(C)N=C(N)N=C(N)N1c1ccc(CNC(=O)Nc2ccc(S(=O)(=O)F)c(Cl)c2)c(Cl)c1', 'TGI', '> 100 µM');

The reported TGI of the compound CCCc1nn(C)c2c(=O)[nH]c(-c3cc(S(=O)(=O)N4CCN(C)CC4)ccc3OCC)nc12 was > 100 µM

The reported TGI of the compound COc1ccc(C(=O)/C=C/c2ccc(OCCCCCCCCCCOc3ccc(/C=C/C(=O)c4ccc(OC)cc4)cc3)cc2)cc1 was > 100 µM

The reported TGI of the compound Cc1cc(OCc2nnc3n2S(=O)(=O)c2ccccc2N3C)ccc1Cl was 52.9 µM

The reported TGI of the compound COC(=O)C1CCC(=O)N1C(c1ccc(OC)cc1)c1cc(OC)c(OC)c(OC)c1 (centres undefined) was > 100 µM

The reported TGI of the compound COc1ccc2cc(-c3cnc4nonc4n3)ccc2c1 was > 100 µM

The reported TGI of the compound COc1cc(-c2nn(-c3cccc(NC(=O)Nc4ccc(Cl)c(C(F)(F)F)c4)c3)cc2-c2ccncc2)ccc1Cl was 2.09 µM

The reported TGI of the compound Nn1c(CCCCCCCCc2nnc(-c3c(O)ccc4ccccc34)n2N)nnc1-c1c(O)ccc2ccccc12 was > 100 µM

The reported TGI of the compound O=c1[nH]c(Nc2ccc(Br)c(C(F)(F)F)c2)nc2nc[nH]c12 was 61.6 µM

Cited source: PubChem BioAssay (NCI)
